Numbers sourced from the supplement of paper PMC11196671.

assay: terephthalic acid (TPA) released, HPLC; higher = more TPA released; extreme values may be limits of the assay; conditions: PET substrate: aFilm; 70 °C; pH 9.5; 24 h
Assign t whenever terephthalic acid does not fall below 0.7 mM; assign f whenever it does.

Decide: terephthalic acid of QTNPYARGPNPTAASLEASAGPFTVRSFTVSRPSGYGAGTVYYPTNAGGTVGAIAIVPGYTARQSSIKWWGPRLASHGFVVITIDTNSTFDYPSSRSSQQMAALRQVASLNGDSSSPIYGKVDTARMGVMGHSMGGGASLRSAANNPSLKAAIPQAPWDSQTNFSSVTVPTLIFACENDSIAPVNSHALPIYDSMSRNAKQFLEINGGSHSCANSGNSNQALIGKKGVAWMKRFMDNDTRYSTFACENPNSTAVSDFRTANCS [DuraPETase] >= 0.7 mM? f

Decide: terephthalic acid of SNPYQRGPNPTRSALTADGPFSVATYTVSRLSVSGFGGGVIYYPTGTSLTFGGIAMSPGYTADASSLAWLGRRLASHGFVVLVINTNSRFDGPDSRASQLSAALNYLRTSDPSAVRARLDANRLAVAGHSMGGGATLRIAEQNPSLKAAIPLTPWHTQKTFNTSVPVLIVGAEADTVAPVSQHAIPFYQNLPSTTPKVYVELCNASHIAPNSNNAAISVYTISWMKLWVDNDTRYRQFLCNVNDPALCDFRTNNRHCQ [LCC-ICCG DAQI] >= 0.7 mM? t

Decide: terephthalic acid of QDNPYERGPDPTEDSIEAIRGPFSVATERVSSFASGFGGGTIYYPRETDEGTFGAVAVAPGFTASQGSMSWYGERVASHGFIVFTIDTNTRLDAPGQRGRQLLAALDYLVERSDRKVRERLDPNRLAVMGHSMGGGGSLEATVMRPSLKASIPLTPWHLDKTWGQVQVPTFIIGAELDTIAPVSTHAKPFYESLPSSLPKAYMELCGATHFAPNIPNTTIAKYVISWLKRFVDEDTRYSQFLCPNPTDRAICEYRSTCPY [Cut190*SS] >= 0.7 mM? f

Decide: terephthalic acid of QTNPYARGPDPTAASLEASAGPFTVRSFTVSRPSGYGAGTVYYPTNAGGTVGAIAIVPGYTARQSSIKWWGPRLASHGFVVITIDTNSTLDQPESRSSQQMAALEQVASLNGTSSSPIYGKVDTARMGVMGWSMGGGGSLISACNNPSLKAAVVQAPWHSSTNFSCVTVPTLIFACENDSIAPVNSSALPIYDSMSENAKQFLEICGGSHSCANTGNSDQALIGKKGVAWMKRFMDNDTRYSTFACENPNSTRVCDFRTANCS [Z1-PETase] >= 0.7 mM? f

* * *

test: PET hydrolysis product formed (TPA+MHET+BHET, UV-Vis) per mg enzyme (mmol/mg enzyme); higher = more PET depolymerisation activity; extreme values may be limits of the assay; conditions: PET substrate: aFilm; 60 °C; pH 9.5; 2 h
outcome-measure: PET hydrolysis product formed
Field format: numeric only.

Name the recorded PET hydrolysis product formed of the item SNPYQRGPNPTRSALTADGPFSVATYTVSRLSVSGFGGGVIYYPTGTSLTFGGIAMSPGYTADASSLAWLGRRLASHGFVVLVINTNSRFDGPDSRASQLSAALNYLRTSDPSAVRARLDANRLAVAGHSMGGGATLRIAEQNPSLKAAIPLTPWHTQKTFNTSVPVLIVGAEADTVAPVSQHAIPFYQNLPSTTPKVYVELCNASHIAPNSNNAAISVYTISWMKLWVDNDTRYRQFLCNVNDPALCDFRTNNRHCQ [LCC-ICCG DAQI] in your answer. 0.0903

Name the recorded PET hydrolysis product formed of the item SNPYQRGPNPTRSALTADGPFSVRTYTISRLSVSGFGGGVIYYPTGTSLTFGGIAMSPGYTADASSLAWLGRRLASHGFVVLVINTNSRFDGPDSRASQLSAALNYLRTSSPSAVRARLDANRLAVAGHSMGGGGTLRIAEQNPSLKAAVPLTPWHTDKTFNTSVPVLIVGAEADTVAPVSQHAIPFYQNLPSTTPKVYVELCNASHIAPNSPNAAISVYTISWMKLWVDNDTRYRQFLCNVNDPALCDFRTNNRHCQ [LCC-ICCG RIP] in your answer. 0.0672

Name the recorded PET hydrolysis product formed of the item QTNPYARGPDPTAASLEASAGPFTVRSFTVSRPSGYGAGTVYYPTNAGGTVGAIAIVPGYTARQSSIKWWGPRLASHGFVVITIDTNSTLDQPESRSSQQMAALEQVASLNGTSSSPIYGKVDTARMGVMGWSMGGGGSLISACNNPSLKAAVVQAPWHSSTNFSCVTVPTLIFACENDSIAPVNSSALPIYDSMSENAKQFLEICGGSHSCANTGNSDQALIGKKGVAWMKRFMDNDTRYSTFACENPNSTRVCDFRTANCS [Z1-PETase] in your answer. 0.0733

Name the recorded PET hydrolysis product formed of the item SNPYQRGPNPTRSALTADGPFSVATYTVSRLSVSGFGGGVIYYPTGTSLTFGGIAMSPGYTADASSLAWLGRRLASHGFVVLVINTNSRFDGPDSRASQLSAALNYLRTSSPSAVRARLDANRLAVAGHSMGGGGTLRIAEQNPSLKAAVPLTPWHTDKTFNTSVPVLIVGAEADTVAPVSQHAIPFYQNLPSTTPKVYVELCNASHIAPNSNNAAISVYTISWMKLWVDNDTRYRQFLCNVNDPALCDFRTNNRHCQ [LCC-ICCG] in your answer. 0.0968

Name the recorded PET hydrolysis product formed of the item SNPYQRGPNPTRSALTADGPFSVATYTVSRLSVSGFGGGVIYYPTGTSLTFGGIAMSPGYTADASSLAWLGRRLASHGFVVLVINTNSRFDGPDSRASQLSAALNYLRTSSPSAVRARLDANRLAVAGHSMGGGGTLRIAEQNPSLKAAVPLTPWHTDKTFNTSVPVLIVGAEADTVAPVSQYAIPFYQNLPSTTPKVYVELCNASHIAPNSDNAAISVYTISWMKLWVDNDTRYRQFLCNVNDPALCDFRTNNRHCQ [LCC-A2] in your answer. 0.154

Name the recorded PET hydrolysis product formed of the item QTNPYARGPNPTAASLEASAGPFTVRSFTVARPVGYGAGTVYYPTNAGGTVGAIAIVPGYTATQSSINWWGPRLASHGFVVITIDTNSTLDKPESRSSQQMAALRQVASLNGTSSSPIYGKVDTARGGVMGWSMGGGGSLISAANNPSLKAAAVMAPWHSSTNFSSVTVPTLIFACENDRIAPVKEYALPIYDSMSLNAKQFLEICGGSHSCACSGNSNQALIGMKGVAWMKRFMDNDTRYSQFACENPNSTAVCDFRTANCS [HotPETase] in your answer. 0.0961

Name the recorded PET hydrolysis product formed of the item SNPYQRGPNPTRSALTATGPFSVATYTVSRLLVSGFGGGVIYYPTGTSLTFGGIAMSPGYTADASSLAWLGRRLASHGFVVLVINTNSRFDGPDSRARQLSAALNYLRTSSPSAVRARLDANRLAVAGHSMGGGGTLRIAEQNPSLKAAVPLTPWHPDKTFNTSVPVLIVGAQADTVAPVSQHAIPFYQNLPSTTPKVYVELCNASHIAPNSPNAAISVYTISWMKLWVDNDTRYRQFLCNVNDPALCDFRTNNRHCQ [LCC-ICCG I6M] in your answer. 0.0585

* * *

assay: MHET released, HPLC; higher = more MHET released; extreme values may be limits of the assay; details: PET substrate: cryPow; 60 °C; pH 9.5; 24 h
I'd appreciate it if you could supply MHET released values for the items below.
Response body: numeric value in mM, unit text excluded.

Name the recorded MHET released of the item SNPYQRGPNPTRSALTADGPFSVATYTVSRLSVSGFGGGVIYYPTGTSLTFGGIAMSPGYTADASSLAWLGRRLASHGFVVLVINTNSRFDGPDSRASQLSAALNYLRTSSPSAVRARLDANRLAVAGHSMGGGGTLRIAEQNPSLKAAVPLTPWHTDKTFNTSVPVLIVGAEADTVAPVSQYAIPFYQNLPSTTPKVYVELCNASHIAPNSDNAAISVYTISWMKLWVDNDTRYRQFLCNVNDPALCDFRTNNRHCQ [LCC-A2] in your answer. 0.281

Name the recorded MHET released of the item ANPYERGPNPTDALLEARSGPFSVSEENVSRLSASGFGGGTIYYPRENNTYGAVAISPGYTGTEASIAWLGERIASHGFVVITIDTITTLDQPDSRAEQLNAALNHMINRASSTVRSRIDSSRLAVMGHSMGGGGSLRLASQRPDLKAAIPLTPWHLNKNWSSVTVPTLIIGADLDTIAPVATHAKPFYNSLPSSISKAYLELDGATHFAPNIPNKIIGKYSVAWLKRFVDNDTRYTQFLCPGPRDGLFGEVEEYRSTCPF [TfCut2] in your answer. 0.0249
